Target: HLA-A*02:01
Test: IEDB peptide-MHC binding, purified MHC/competitive/radioactivity; bounds were set here for any values at or beyond the usual limits of such assays
Conditions: source organism: Human alphaherpesvirus 1
measurement-label: IC50 (nM)
Express it in nM; write the number only.

(Q) Given the sequence SQLAHLVYV , what is its reported IC50?
(A) 62

(Q) Return reported IC50; argument: RLDALVVAA
(A) 44

(Q) # get_value(readout='IC50', item= YLCPVLVFV )
(A) 9.5

(Q) Requested read-out: IC50. Entry: IVYLCPVLV
(A) 137

(Q) Fill in the blank: the reported IC50 of ALVACVAAL is ____.
(A) 55

(Q) Give the measured IC50 of EMIRYMALV .
(A) 179

(Q) # input sequence: VLMDGHTGM ; wanted: its IC50
(A) 136

(Q) May I ask what IC50 has been recorded for ALLQQTWTL ?
(A) 0.39

(Q) I would be grateful if you could share the reported IC50 for FLLKQFHAA .
(A) 53

(Q) Which measured IC50 value corresponds to LLQRANELV ?
(A) 635

(Q) Given the entry VLLEKAPPL , report its measured IC50.
(A) 24

(Q) Which measured IC50 value corresponds to FLAASALGV ?
(A) 7.4

(Q) Give the measured IC50 of FVVYNLTGV .
(A) 2.2

(Q) I would be grateful if you could share the reported IC50 for VMAAVCLQI .
(A) 15

(Q) Any idea what IC50 was measured for FVYTPSPYV ?
(A) 129

(Q) Given the entry LLAQFQHTV , report its measured IC50.
(A) 1.2

(Q) Bench note: what IC50 did VLDCVVTGA show?
(A) 973

(Q) GET /values?readout=IC50&item= YLACELLPA
(A) 4.7

(Q) # IC50 lookup, item FLGSCICFI
(A) 12

(Q) For ILMILIEGI , what is its reported IC50?
(A) 12

---

Molecular target: HLA-A*02:01
Test: IEDB peptide-MHC binding, purified MHC/competitive/radioactivity; bounds were set here for any values at or beyond the usual limits of such assays
Conditions: source organism: Human alphaherpesvirus 1
Lab note: class by IC50, see band 1 (below 10 nM), band 2 (10 nM to below 200 nM), band 3 (200 nM or more)

(Q) Determine which band this sequence sits in: AVHDPERPL
(A) band 3

(Q) Which bin should I file YLLGRPPNA under?
(A) band 2

(Q) Hi there! Could you help me figure out the category for QLFPGLAAL please?
(A) band 2

(Q) Lab log: RLYRWQPDL — assign IC50 category
(A) band 3

(Q) // return the class label for YLANGGFLI
(A) band 1

(Q) Each sequence maps to one class by IC50. Which class for YVLHFACLV ?
(A) band 1

(Q) Field: class (IC50) — entry: LLPEIAPNA
(A) band 2

(Q) Where would MLRDRWSLV land among the classes by reported IC50?
(A) band 3

(Q) Category lookup for the sequence RLNNRPIAV
(A) band 2

(Q) Band for the recorded IC50 of LLMVAVIMAI ?
(A) band 1

---

Biological target: HLA-A*02:01
Test: IEDB peptide-MHC binding, purified MHC/competitive/radioactivity; bounds were set here for any values at or beyond the usual limits of such assays
Conditions: source organism: Human alphaherpesvirus 1
What pIC50 was measured for each of the following?
Please note pIC50 is a logarithmic value: minus log10 of concentration in mol/L. Answer with that number alone.

(Q) Fill in: pIC50 of FLHDVENFL is ___
(A) 7.92

(Q) Any idea what its pIC50 is? The sequence is LLLALRHPA
(A) 6.22

(Q) Would you kindly share the measured pIC50 for CLAEYCTSL ?
(A) 6.73

(Q) Which pIC50 value is on record for VLPATFAAV ?
(A) 7.96

(Q) Field request: pIC50 | item: SVYALGFGV
(A) 5.89

(Q) Fill in the blank: the reported pIC50 of ALSALLTKL is ____.
(A) 6.50

(Q) Record request: pIC50 value, item TLIPRLFAL
(A) 7.46

(Q) Need pIC50, item ILLENLMRA
(A) 7.72

(Q) // returns reported pIC50 for input YLCDNFCPA
(A) 7.57

(Q) Look up pIC50 for this sequence: ALATALTEA
(A) 8.00

(Q) Need pIC50 of LLFVLLVAL , thanks.
(A) 5.95

(Q) Quick check: pIC50 of SLDAKQWSV ?
(A) 8.12

(Q) Looking for the measured pIC50 of LLMNELLRV , can you help?
(A) 8.08

(Q) If you can, please state the reported pIC50 value of YLSRTQRLA .
(A) 6.96

(Q) Can you look up the measured pIC50 of YLGAFLSVL for me?
(A) 7.80

(Q) # get_value(readout='pIC50', item= CMFGVVSPA )
(A) 8.02

(Q) Record request: pIC50 value, item HLMRDPALL
(A) 7.43

(Q) Given GLWVCATSL , state its recorded pIC50.
(A) 7.44

(Q) Entry GLVSFNFLV has what pIC50?
(A) 9.30

(Q) Which pIC50 is listed for MLIDLGLDL ?
(A) 7.85

(Q) Any idea what pIC50 was measured for FLWSFLVLK ?
(A) 5.85

(Q) Which measured pIC50 value corresponds to LVWYTVFGA ?
(A) 6.46

(Q) Which pIC50 reading was recorded for the sequence GVVIIAALV ?
(A) 5.97

(Q) Tell me the measured pIC50 of FLMAPDLYV , please.
(A) 8.19

(Q) Data request, read-out pIC50, for FILDALAQA
(A) 8.59

(Q) Which pIC50 value is on record for ALAFDSTRV ?
(A) 6.19

(Q) Can you look up the measured pIC50 of RLQEALAVV for me?
(A) 8.18

(Q) What value of pIC50 has been reported for the following sequence? RTAWWVWCV
(A) 7.59

(Q) Entry YLARAAGLV : reported pIC50 = ?
(A) 6.68

(Q) What value of pIC50 has been recorded for this entry: ILMHATYFL
(A) 8.92

(Q) I'd like to know its pIC50. The sequence in question is AVVPIIPFL
(A) 5.99

(Q) What value of pIC50 has been reported for the following sequence? KQLNYCHLI
(A) 6.40

(Q) Field request: pIC50 | item: ALAVFQPAV
(A) 8.80

(Q) Recorded pIC50 for RLPPHTQPV , please?
(A) 7.51

(Q) Given SLQQELAHM , state its recorded pIC50.
(A) 7.15

(Q) What does the data say about its pIC50? Entry: KLMARRAQV
(A) 6.10

(Q) For the sequence GMVIACLLV , what pIC50 is on record?
(A) 6.60

(Q) Would you kindly share the measured pIC50 for RMLGDVMAV ?
(A) 8.77

(Q) Record request: pIC50 value, item VLWSLLWLG
(A) 8.85

(Q) // returns reported pIC50 for input KMAQCTLAV
(A) 7.85

(Q) What does the record list as pIC50 for FLHLYLFLT ?
(A) 6.25

(Q) # lookup: pIC50 of RLASLLTYA
(A) 8.10

(Q) Need pIC50, item LLAENLPGL
(A) 8.96

(Q) Quick one: pIC50 for AMNRRIMNV ?
(A) 5.92

(Q) # query: pIC50 of entry LLYLITNYL
(A) 7.96
